In this section we review reported viability, T/C values for a set of compounds.
System: 926638-142-R-J1-PDC complex spheroid viability
Assay text: Anticancer human tumor 926638-142-R-J1-PDC patient-derived endometrial carcinoma cell line growth inhibition [POLQ]
Condition set: second compound 10 µM; first compound 0.316 µM; hits give low values

Consider the following illustrative entries.
compound="CNCc1ccc(-c2[nH]c3cc(F)cc4c3c2CCNC4=O)cc1 + COC1C(OC(N)=O)C(O)C(Oc2ccc3c(O)c(NC(=O)c4ccc(O)c(CC=C(C)C)c4)c(=O)oc3c2C)OC1(C)C" value=83.8%
compound="CC(C)n1c(=O)n(C)c2cnc3cc(F)c(-c4ccc(OCCCN5CCCCC5)nc4)cc3c21 + COC1C(OC(N)=O)C(O)C(Oc2ccc3c(O)c(NC(=O)c4ccc(O)c(CC=C(C)C)c4)c(=O)oc3c2C)OC1(C)C" value=114%

Now for the compound whose viability, T/C we want.
// sample CCc1cc2c(N3CCc4c(cc(Cn5ccnc5)cc4-c4cn(C)nc4C(F)(F)F)C3=O)ccnc2c(OC)n1 + Nc1ccc(C#CCN(C(=O)Cc2ncc(C(F)(F)F)cc2C(F)(F)F)c2ccc(F)cc2)nn1 , its viability, T/C was 59.8%

###

System: 926638-142-R-J1-PDC complex spheroid viability
Assay text: Anticancer human tumor 926638-142-R-J1-PDC cell line growth inhibition [POLQ];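 further: spheroids exposed to drugs for one week before readout; percent viability relative to DMSO vehicle control wells set as 100%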
Condition set: second compound 0.316 µM; first compound 1 µM; hits give low values
Values of viability, T/C strictly less than 50% map to true (1), and values of at least 50% map to false (0).

Completed entries (count: 4):
compound="CC1COCCN1c1cc(-c2ccnn2C)c2ccnc(-c3ccn[nH]3)c2n1 (stereo not given) + COC1C(OC(N)=O)C(O)C(Oc2ccc3c(O)c(NC(=O)c4ccc(O)c(CC=C(C)C)c4)c(=O)oc3c2C)OC1(C)C" label_value="true (1)"
compound="Nc1ccn(C2OC(CO)C(O)C2(F)F)c(=O)n1 (stereo not given) + COC1C(OC(N)=O)C(O)C(Oc2ccc3c(O)c(NC(=O)c4ccc(O)c(CC=C(C)C)c4)c(=O)oc3c2C)OC1(C)C" label_value="false (0)"
compound="COc1cc2cc(C(=O)CCC(=O)O)sc2cc1OC + Cc1cccc(N(C)C(=O)C2C(O)CCN2c2nc(C)cc(C(F)(F)F)c2C#N)c1" label_value="false (0)"
compound="CCc1cc2c(N3CCc4c(cc(Cn5ccnc5)cc4-c4cn(C)nc4C(F)(F)F)C3=O)ccnc2c(OC)n1 + Nc1ccc(C#CCN(C(=O)Cc2ncc(C(F)(F)F)cc2C(F)(F)F)c2ccc(F)cc2)nn1" label_value="true (1)"

Now consider a different compound.
Query: Strictly below 50%: is that where viability, T/C of CC(C)n1c(=O)n(C)c2cnc3cc(F)c(-c4ccc(OCCCN5CCCCC5)nc4)cc3c21 + Nc1ccc(C#CCN(C(=O)Cc2ncc(C(F)(F)F)cc2C(F)(F)F)c2ccc(F)cc2)nn1 sits?
Reply: false (0)

###

System: 926638-142-R-J1-PDC complex spheroid viability
Assay text: Anticancer human tumor 926638-142-R-J1-PDC cell line growth inhibition [POLQ];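 further: spheroids exposed to drugs for one week before readout; percent viability relative to DMSO vehicle control wells set as 100%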
Condition set: second compound 3.16 µM; first compound 0.0316 µM; hits give low values
Observation type: viability, T/C (%)
Numeric only. Scale: %

molecule="CC1COCCN1c1cc(C2(O)CC3CCC(C2)O3)c2cnn(-c3ccn[nH]3)c2n1 (stereo not given) + COC1C(OC(N)=O)C(O)C(Oc2ccc3c(O)c(NC(=O)c4ccc(O)c(CC=C(C)C)c4)c(=O)oc3c2C)OC1(C)C" observation_type="viability, T/C" output_unit=% value=90.5
molecule="CC1COCCN1c1cc(C2(S(C)(=N)=O)CC2)nc(-c2ccnc3[nH]ccc23)n1 (stereo not given) + Cc1cccc(N(C)C(=O)C2C(O)CCN2c2nc(C)cc(C(F)(F)F)c2C#N)c1" observation_type="viability, T/C" output_unit=% value=91.6
molecule="CCc1cc2c(N3CCc4c(cc(Cn5ccnc5)cc4-c4cn(C)nc4C(F)(F)F)C3=O)cc(C)nc2c(OC)n1 + Nc1ccc(C#CCN(C(=O)Cc2ncc(C(F)(F)F)cc2C(F)(F)F)c2ccc(F)cc2)nn1" observation_type="viability, T/C" output_unit=% value=76.3
molecule="CNCc1ccc(-c2[nH]c3cc(F)cc4c3c2CCNC4=O)cc1 + Cc1cccc(N(C)C(=O)C2C(O)CCN2c2nc(C)cc(C(F)(F)F)c2C#N)c1" observation_type="viability, T/C" output_unit=% value=97.8

Now for the molecule whose viability, T/C we want.
// sample Nc1ccn(C2OC(CO)C(O)C2(F)F)c(=O)n1 (stereo not given) + COC1C(OC(N)=O)C(O)C(Oc2ccc3c(O)c(NC(=O)c4ccc(O)c(CC=C(C)C)c4)c(=O)oc3c2C)OC1(C)C , its viability, T/C was 79
